// Kd collected for Receptor-interacting serine/threonine-protein kinase 3 (Homo sapiens, UniProt Q9Y572)

The examples below pair each entry with its known result.
{"COMPOUND": "COc1ccc([C@H](C)Oc2cc(-c3nn(C)c4c(-c5cnn(C6CCOCC6)c5)cnc(N)c34)ccc2NS(=O)(=O)C(F)F)cc1 [US20250115598, Compound 129]", "ENDPOINT NAME": "Kd", "RESULT": "> 2500 nM"}
{"COMPOUND": "C[C@H](Oc1cc(-c2nn(C)c3c(C4=CCCN(C)C4)cnc(N)c23)ccc1NS(=O)(=O)C(F)F)c1ccc(F)cc1 [US20250115598, Compound 55]", "ENDPOINT NAME": "Kd", "RESULT": "> 2500 nM"}

Here's the next entry for you.
Exercise: Give Kd (Receptor-interacting serine/threonine-protein kinase 3 (Homo sapiens, UniProt Q9Y572)) of the following compound: Cn1nc(-c2ccc(NS(=O)(=O)C(F)F)c(OCc3ccc(F)cc3)c2)c2c(N)ncc(-c3ccncc3)c21 [US20250115598, Compound 14]
Solution: > 2500 nM
